TGI: recorded values
- Test system: KM12 colon
- experiment_summary: NCI tumour cell line growth inhibition, 48 h

Example cases with answers are listed next.
# compound, test_target, TGI
data = [
    ("COc1cc(/C(Cl)=C/C=C/C(=O)c2c(C)[n+]([O-])c3ccc(Cl)cc3[n+]2[O-])cc(OC)c1OC", "KM12 colon", "> 50 µM"),
    ("CCOC(=O)c1cnc(-n2[nH]c(C)c(CCO)c2=O)[nH]c1=O", "KM12 colon", "> 100 µM"),
    ("CNC(=O)c1ccccc1-[s+]1c2ccccc2c(=O)n1C (stereo unspecified)", "KM12 colon", "> 100 µM"),
    ("CC(=O)C1=C(O)C=C2Oc3c(C(=O)/C=C/c4cc(C(F)(F)F)cc(C(F)(F)F)c4)c(O)c(C)c(O)c3[C@]2(C)C1=O", "KM12 colon", "3.23 µM"),
    ("O=C(O)CSCc1cccc2ccccc12", "KM12 colon", "> 100 µM"),
    ("CC1CC2C3CC(F)C4=CC(=O)C=CC4(C)C3(F)C(O)CC2(C)C1(O)C(=O)COC(=O)C(C)(C)C (stereo unspecified)", "KM12 colon", "> 100 µM"),
]

Exercise: Return reported TGI; argument: `C=C(Cn1c(=O)c2ccccc2c2ccccc21)c1ccc(C(=O)Nc2ccccc2N)cc1`
Solution: > 100 µM

Exercise: Return reported TGI; argument: `O=C1N[C@H]2c3c(Cl)sc(Cl)c3/C(=N/O)[C@H]2O1`
Solution: > 100 µM

Exercise: Return reported TGI; argument: `COc1cc2c(/C=N\N=C(N)N)c(Cl)[nH]c2cc1C`
Solution: 22.6 µM

Exercise: Return reported TGI; argument: CCC(C)CN1C(=O)NC(C)(Cc2ccccc2)C1=O (stereo unspecified)
Solution: > 100 µM

Exercise: Return reported TGI; argument: `O=C(CSCC(=O)N/N=C/c1cc(I)cc(I)c1O)N/N=C/c1cc(I)cc(I)c1O`
Solution: 88.2 µM
